Data origin, for the record: paper PMC3852661

# TEST SYSTEM: T1, MBP-SUFU-FL (human, UniProt Q9UMX1 32-483)
# T1 chain: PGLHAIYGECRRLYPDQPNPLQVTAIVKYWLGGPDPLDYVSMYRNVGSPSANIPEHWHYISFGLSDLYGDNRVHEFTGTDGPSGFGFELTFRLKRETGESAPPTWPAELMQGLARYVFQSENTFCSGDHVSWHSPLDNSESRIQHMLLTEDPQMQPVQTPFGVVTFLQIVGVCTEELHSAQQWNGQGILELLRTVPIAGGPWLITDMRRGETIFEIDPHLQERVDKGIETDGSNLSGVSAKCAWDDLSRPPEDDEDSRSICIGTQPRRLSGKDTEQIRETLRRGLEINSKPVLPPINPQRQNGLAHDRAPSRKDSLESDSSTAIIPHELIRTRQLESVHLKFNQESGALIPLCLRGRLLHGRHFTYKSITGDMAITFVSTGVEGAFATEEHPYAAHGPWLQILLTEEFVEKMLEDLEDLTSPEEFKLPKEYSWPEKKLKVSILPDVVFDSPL
# MEASUREMENT NOTES: MST
Where no end group is shown, it is not given here. The star is where a group is joined. 5FAM = O=C1OC2(c3ccc(O)cc3Oc3cc(O)ccc32)c2ccc(C(=O)*)cc21
MEASUREMENT NAME: Kd (µM)
Give bare numbers, in µM.

q: Suppose we examine the binder 5FAM-TSPGGSYGHLSIGTMSP [FAM-GLI1p] ; what Kd value has been reported?
a: 4.5
